Just for reference, ChEMBL document CHEMBL5360606 is where these values come from.

# Experimental Target: Polycomb protein EED (Homo sapiens, UniProt O75530)
# Sequence (O75530 whole entry, the tested form may be a part): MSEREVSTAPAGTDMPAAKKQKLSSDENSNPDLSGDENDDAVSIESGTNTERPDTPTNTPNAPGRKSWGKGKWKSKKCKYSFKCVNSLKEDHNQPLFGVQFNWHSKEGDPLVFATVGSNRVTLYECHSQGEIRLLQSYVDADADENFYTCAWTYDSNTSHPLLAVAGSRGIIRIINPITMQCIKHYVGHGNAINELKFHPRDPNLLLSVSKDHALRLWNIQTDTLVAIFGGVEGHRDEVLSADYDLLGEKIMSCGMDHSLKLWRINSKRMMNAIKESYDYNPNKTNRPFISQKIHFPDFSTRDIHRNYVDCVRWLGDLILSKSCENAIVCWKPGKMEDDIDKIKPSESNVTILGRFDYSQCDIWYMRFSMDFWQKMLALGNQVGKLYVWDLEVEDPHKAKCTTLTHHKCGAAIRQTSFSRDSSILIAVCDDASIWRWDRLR
# Test Summary: Binding affinity to his-tagged EED (76 to 441 residues) (unknown origin) expressed in Escherichia coli BL21 (DE3) assessed as dissociation constant by SPR analysis
Reported Kd values are given for each entry in this list.

NC1=NCC(c2cccc(Oc3ccc(Cl)cc3)c2)C1 (configuration not stated)
~360 µM

Kindly review the next compound as well.
Kd in this record for "Fc1ccccc1C1=Cc2ccccc2C2=NCCN12" : 13.5 µM

----------
# Experimental Target: UniProt:O75530
# Test Summary: Binding affinity to his-tagged EED (76 to 441 residues) (unknown origin) expressed in Escherichia coli BL21 (DE3) using H3K27me3 as substrate assessed as dissociation constant
Value Type: pKd
Note: pKd values are expressed as the negative base-10 logarithm of concentration in M.

CC(C)(Cc1ccccc1)C1=Cc2ccccc2C2=NCCN12
4.68

pKd in this record for "Clc1ccc(C2(C3=Cc4ccccc4C4=NCCN34)CC2)cc1" : 4.60
